biological target: Progesterone receptor (Rattus norvegicus) (UniProt Q63449); experiment: Displacement of [3H]R5020 from rat progesterone receptor(PgR)
Sequence (Q63449 whole entry): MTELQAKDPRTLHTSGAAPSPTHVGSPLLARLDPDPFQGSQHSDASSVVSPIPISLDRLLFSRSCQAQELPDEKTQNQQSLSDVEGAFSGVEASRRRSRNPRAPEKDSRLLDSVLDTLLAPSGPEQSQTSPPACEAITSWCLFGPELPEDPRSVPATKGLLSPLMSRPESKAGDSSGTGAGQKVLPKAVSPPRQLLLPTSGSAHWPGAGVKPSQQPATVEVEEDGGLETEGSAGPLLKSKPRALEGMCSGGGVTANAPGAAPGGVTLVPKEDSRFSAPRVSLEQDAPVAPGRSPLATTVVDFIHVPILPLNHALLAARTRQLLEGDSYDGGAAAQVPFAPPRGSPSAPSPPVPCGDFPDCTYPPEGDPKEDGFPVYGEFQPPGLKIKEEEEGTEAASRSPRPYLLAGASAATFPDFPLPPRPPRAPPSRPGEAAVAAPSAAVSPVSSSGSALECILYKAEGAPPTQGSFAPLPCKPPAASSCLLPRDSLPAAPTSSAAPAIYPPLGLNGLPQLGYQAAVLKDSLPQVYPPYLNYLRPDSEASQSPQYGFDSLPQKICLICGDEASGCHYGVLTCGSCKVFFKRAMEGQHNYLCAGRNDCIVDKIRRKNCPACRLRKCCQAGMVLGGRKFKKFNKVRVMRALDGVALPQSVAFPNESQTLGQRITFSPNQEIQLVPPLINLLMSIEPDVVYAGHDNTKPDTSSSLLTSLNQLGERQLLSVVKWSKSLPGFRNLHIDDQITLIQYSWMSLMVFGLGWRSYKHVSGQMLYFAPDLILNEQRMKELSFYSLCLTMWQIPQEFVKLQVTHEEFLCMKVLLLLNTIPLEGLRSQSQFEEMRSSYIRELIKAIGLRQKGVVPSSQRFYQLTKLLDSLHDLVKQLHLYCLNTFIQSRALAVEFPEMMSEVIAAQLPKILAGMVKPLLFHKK

>  <compound>
C[C@@H]1CC2=CC(=O)CC[C@@H]2C2CC[C@@]3(C)C(C[C@@H](F)[C@@H]3O)C21 (some centres undefined)

>  <relative binding affinity (RBA)>
5.7

$$$$
>  <compound>
C[C@]12CC[C@H]3[C@@H](CCC4=CC(=O)CC[C@@]43C)[C@@H]1CC[C@@H]2O

>  <relative binding affinity (RBA)>
0.09

$$$$
>  <compound>
C[C@]12CC[C@H]3[C@@H](CCC4CC(=O)CC[C@@]43C)[C@@H]1C[C@@H](F)[C@@H]2O (some centres undefined)

>  <relative binding affinity (RBA)>
0.07

$$$$
>  <compound>
C[C@@H]1CC2=CC(=O)CC[C@@H]2C2CC[C@@]3(C)C(CC[C@@]3(O)CF)C21 (some centres undefined)

>  <relative binding affinity (RBA)>
10.3

$$$$
